Test system: MDA-MB-231 complex spheroids, growth inhibition
Experiment: Anticancer human tumor MDA-MB-231 cell line growth inhibition [Asc];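 note: spheroids exposed to compounds for 7 days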
Details: second compound 0.3 µM; first compound 0.1 µM; stronger effect = lower value
Measurement name: viability, T/C (%)
The response must be a number in % with no trailing unit.

Output viability, T/C of Cn1ncnc1[C@H]1c2n[nH]c(=O)c3cc(F)cc(c23)N[C@@H]1c1ccc(F)cc1 + CCN1C(C(=O)NC23CCC(C(=O)O)(CC2)CC3)C(c2cccc(Cl)c2F)C2(C(=O)Nc3cc(Cl)ccc32)C12CCCCC2 85.4

Output viability, T/C of NC1CCC(NC2CC2c2ccccc2)CC1 (stereo not drawn) + CCN1C(C(=O)NC23CCC(C(=O)O)(CC2)CC3)C(c2cccc(Cl)c2F)C2(C(=O)Nc3cc(Cl)ccc32)C12CCCCC2 105

Output viability, T/C of C#Cc1c(F)ccc2cc(O)cc(-c3ncc4c(N5CC6CCC(C5)N6)nc(OCC56CCCN5CC(F)C6)nc4c3F)c12 (stereo not drawn) + CCN1C(C(=O)NC23CCC(C(=O)O)(CC2)CC3)C(c2cccc(Cl)c2F)C2(C(=O)Nc3cc(Cl)ccc32)C12CCCCC2 107

###

Tested on: MDA-MB-231 complex spheroids, growth inhibition
Assay: Anticancer human tumor MDA-MB-231 cell line growth inhibition [Asc];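 note: spheroids exposed to compounds for 7 days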
Conditions: second compound 0.01 µM; first compound 0.0316 µM; stronger effect = lower value
Measurement name: viability, T/C (%)
The response must be a number in % with no trailing unit.

Output viability, T/C of C#Cc1c(F)ccc2cc(O)cc(-c3ncc4c(N5CC6CCC(C5)N6)nc(OCC56CCCN5CC(F)C6)nc4c3F)c12 (centres undefined) + CNC(C)C(=O)NC1CN(S(=O)(=O)c2cccc(S(=O)(=O)N3CCC4CCC(C(=O)NC(c5ccccc5)c5ccccc5)N4C(=O)C(NC(=O)C(C)NC)C3)c2)CCC2CCC(C(=O)NC(c3ccccc3)c3ccccc3)N2C1=O 1.96

Output viability, T/C of NC1CCC(NC2CC2c2ccccc2)CC1 (centres undefined) + CNC(C)C(=O)NC1CN(S(=O)(=O)c2cccc(S(=O)(=O)N3CCC4CCC(C(=O)NC(c5ccccc5)c5ccccc5)N4C(=O)C(NC(=O)C(C)NC)C3)c2)CCC2CCC(C(=O)NC(c3ccccc3)c3ccccc3)N2C1=O 4.51

Output viability, T/C of C=CC(=O)N1CCN(c2nc(=O)n(-c3c(C)ccnc3C(C)C)c3nc(-c4c(O)cccc4F)c(F)cc23)C(C)C1 (centres undefined) + CNC(C)C(=O)NC1CN(S(=O)(=O)c2cccc(S(=O)(=O)N3CCC4CCC(C(=O)NC(c5ccccc5)c5ccccc5)N4C(=O)C(NC(=O)C(C)NC)C3)c2)CCC2CCC(C(=O)NC(c3ccccc3)c3ccccc3)N2C1=O 4.27

Output viability, T/C of O=C(c1ccc(F)c(F)c1Nc1ccc(I)cc1F)N1CC(O)([C@@H]2CCCCN2)C1 + CNC(C)C(=O)NC1CN(S(=O)(=O)c2cccc(S(=O)(=O)N3CCC4CCC(C(=O)NC(c5ccccc5)c5ccccc5)N4C(=O)C(NC(=O)C(C)NC)C3)c2)CCC2CCC(C(=O)NC(c3ccccc3)c3ccccc3)N2C1=O 1.57

###

Test system: MDA-MB-231 complex spheroids, growth inhibition
Assay: Anticancer human tumor MDA-MB-231 cell line growth inhibition [Asc]; active means viability on the fitted dose curve at most 10% of control; inactive means the rest;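 note: spheroids exposed to compounds for 7 days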
Settings: second compound 0.1 µM; first compound 0.0316 µM
I would appreciate it if you answered using one of these outcomes: active, inactive

Which outcome was entered for the compound C=CC(=O)N1CCN(c2nc(=O)n(-c3c(C)ccnc3C(C)C)c3nc(-c4c(O)cccc4F)c(F)cc23)C(C)C1 (stereo unspecified) + CNC(C)C(=O)NC1CN(S(=O)(=O)c2cccc(S(=O)(=O)N3CCC4CCC(C(=O)NC(c5ccccc5)c5ccccc5)N4C(=O)C(NC(=O)C(C)NC)C3)c2)CCC2CCC(C(=O)NC(c3ccccc3)c3ccccc3)N2C1=O in this test? active

Which outcome was entered for the compound O=C(c1cc(Cc2n[nH]c(=O)c3ccccc23)ccc1F)N1CCN(C(=O)C2CC2)CC1 + CNC(C)C(=O)NC1CN(S(=O)(=O)c2cccc(S(=O)(=O)N3CCC4CCC(C(=O)NC(c5ccccc5)c5ccccc5)N4C(=O)C(NC(=O)C(C)NC)C3)c2)CCC2CCC(C(=O)NC(c3ccccc3)c3ccccc3)N2C1=O in this test? active

Which outcome was entered for the compound C=C(F)C(=O)N1CCN(c2nc(OCC3CCCN3C)nc3c2CCN(c2cccc4cccc(Cl)c24)C3)CC1CC#N (stereo unspecified) + CNC(C)C(=O)NC1CN(S(=O)(=O)c2cccc(S(=O)(=O)N3CCC4CCC(C(=O)NC(c5ccccc5)c5ccccc5)N4C(=O)C(NC(=O)C(C)NC)C3)c2)CCC2CCC(C(=O)NC(c3ccccc3)c3ccccc3)N2C1=O in this test? active

Which outcome was entered for the compound C=C(F)C(=O)N1CCN(c2nc(OCC3CCCN3C)nc3c2CCN(c2cccc4cccc(Cl)c24)C3)CC1CC#N (stereo unspecified) + Cc1c(S(C)(=O)=O)c(-c2cc(F)cc(N3CCN(c4ccc(NS(=O)(=O)c5ccc(NC(CCN6CCC(C(=O)OCCCP(=O)(O)O)CC6)CSc6ccccc6)c(S(=O)(=O)C(F)(F)F)c5)cc4)CC3)c2)c(-c2ccc(Cl)cc2)n1C(C)C in this test? inactive

Which outcome was entered for the compound NC1CCC(NC2CC2c2ccccc2)CC1 (stereo unspecified) + Cc1c(S(C)(=O)=O)c(-c2cc(F)cc(N3CCN(c4ccc(NS(=O)(=O)c5ccc(NC(CCN6CCC(C(=O)OCCCP(=O)(O)O)CC6)CSc6ccccc6)c(S(=O)(=O)C(F)(F)F)c5)cc4)CC3)c2)c(-c2ccc(Cl)cc2)n1C(C)C in this test? inactive

Which outcome was entered for the compound COc1c(OCCCN2CCOCC2)ccc2c3n(c(=NC(=O)c4cnc(N)nc4)nc12)CCN3 + Cc1c(S(C)(=O)=O)c(-c2cc(F)cc(N3CCN(c4ccc(NS(=O)(=O)c5ccc(NC(CCN6CCC(C(=O)OCCCP(=O)(O)O)CC6)CSc6ccccc6)c(S(=O)(=O)C(F)(F)F)c5)cc4)CC3)c2)c(-c2ccc(Cl)cc2)n1C(C)C in this test? inactive

Which outcome was entered for the compound NC1CCC(NC2CC2c2ccccc2)CC1 (stereo unspecified) + CNC(C)C(=O)NC1CN(S(=O)(=O)c2cccc(S(=O)(=O)N3CCC4CCC(C(=O)NC(c5ccccc5)c5ccccc5)N4C(=O)C(NC(=O)C(C)NC)C3)c2)CCC2CCC(C(=O)NC(c3ccccc3)c3ccccc3)N2C1=O in this test? active

Which outcome was entered for the compound O=C(c1ccc(F)c(F)c1Nc1ccc(I)cc1F)N1CC(O)([C@@H]2CCCCN2)C1 + Cc1c(S(C)(=O)=O)c(-c2cc(F)cc(N3CCN(c4ccc(NS(=O)(=O)c5ccc(NC(CCN6CCC(C(=O)OCCCP(=O)(O)O)CC6)CSc6ccccc6)c(S(=O)(=O)C(F)(F)F)c5)cc4)CC3)c2)c(-c2ccc(Cl)cc2)n1C(C)C in this test? inactive

Which outcome was entered for the compound C#Cc1c(F)ccc2cc(O)cc(-c3ncc4c(N5CC6CCC(C5)N6)nc(OCC56CCCN5CC(F)C6)nc4c3F)c12 (stereo unspecified) + CNC(C)C(=O)NC1CN(S(=O)(=O)c2cccc(S(=O)(=O)N3CCC4CCC(C(=O)NC(c5ccccc5)c5ccccc5)N4C(=O)C(NC(=O)C(C)NC)C3)c2)CCC2CCC(C(=O)NC(c3ccccc3)c3ccccc3)N2C1=O in this test? active

Which outcome was entered for the compound CCN1CCN(Cc2ccc(Nc3ncc(F)c(-c4cc(F)c5nc(C)n(C(C)C)c5c4)n3)nc2)CC1 + CNC(C)C(=O)NC1CN(S(=O)(=O)c2cccc(S(=O)(=O)N3CCC4CCC(C(=O)NC(c5ccccc5)c5ccccc5)N4C(=O)C(NC(=O)C(C)NC)C3)c2)CCC2CCC(C(=O)NC(c3ccccc3)c3ccccc3)N2C1=O in this test? active

Which outcome was entered for the compound C=CC(=O)N1CCN(c2nc(=O)n(-c3c(C)ccnc3C(C)C)c3nc(-c4c(O)cccc4F)c(F)cc23)C(C)C1 (stereo unspecified) + Cc1c(S(C)(=O)=O)c(-c2cc(F)cc(N3CCN(c4ccc(NS(=O)(=O)c5ccc(NC(CCN6CCC(C(=O)OCCCP(=O)(O)O)CC6)CSc6ccccc6)c(S(=O)(=O)C(F)(F)F)c5)cc4)CC3)c2)c(-c2ccc(Cl)cc2)n1C(C)C in this test? inactive

###

System: MDA-MB-231 complex spheroids, growth inhibition
Experiment: Anticancer human tumor MDA-MB-231 cell line growth inhibition [Asc];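 note: spheroids exposed to compounds for 7 days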
Conditions: second compound 0.1 µM; first compound 0.949 µM; stronger effect = lower value
Give viability, T/C for every item shown.
The response must be a number in % with no trailing unit.

# return viability, T/C of CCN1C(C(=O)NC23CCC(C(=O)O)(CC2)CC3)C(c2cccc(Cl)c2F)C2(C(=O)Nc3cc(Cl)ccc32)C12CCCCC2 (centres undefined) + CNC(C)C(=O)NC1CN(S(=O)(=O)c2cccc(S(=O)(=O)N3CCC4CCC(C(=O)NC(c5ccccc5)c5ccccc5)N4C(=O)C(NC(=O)C(C)NC)C3)c2)CCC2CCC(C(=O)NC(c3ccccc3)c3ccccc3)N2C1=O (system: MDA-MB-231 complex spheroids, growth inhibition) 1.78

# return viability, T/C of Cc1nc(N2CCC3(CC2)COC(C)C3N)c(CO)nc1Sc1ccnc(N)c1Cl (centres undefined) + Cc1c(S(C)(=O)=O)c(-c2cc(F)cc(N3CCN(c4ccc(NS(=O)(=O)c5ccc(NC(CCN6CCC(C(=O)OCCCP(=O)(O)O)CC6)CSc6ccccc6)c(S(=O)(=O)C(F)(F)F)c5)cc4)CC3)c2)c(-c2ccc(Cl)cc2)n1C(C)C (system: MDA-MB-231 complex spheroids, growth inhibition) 1.43

# return viability, T/C of Cc1nc(N2CCC3(CC2)COC(C)C3N)c(CO)nc1Sc1ccnc(N)c1Cl (centres undefined) + CNC(C)C(=O)NC1CN(S(=O)(=O)c2cccc(S(=O)(=O)N3CCC4CCC(C(=O)NC(c5ccccc5)c5ccccc5)N4C(=O)C(NC(=O)C(C)NC)C3)c2)CCC2CCC(C(=O)NC(c3ccccc3)c3ccccc3)N2C1=O (system: MDA-MB-231 complex spheroids, growth inhibition) 1.23

# return viability, T/C of CCN1C(C(=O)NC23CCC(C(=O)O)(CC2)CC3)C(c2cccc(Cl)c2F)C2(C(=O)Nc3cc(Cl)ccc32)C12CCCCC2 (centres undefined) + Cc1c(S(C)(=O)=O)c(-c2cc(F)cc(N3CCN(c4ccc(NS(=O)(=O)c5ccc(NC(CCN6CCC(C(=O)OCCCP(=O)(O)O)CC6)CSc6ccccc6)c(S(=O)(=O)C(F)(F)F)c5)cc4)CC3)c2)c(-c2ccc(Cl)cc2)n1C(C)C (system: MDA-MB-231 complex spheroids, growth inhibition) 101
